# ASSAYED TARGET: Biot-HIF-1α786-826/GST-p300323-423 (Homo sapiens)
# Construct: the p300 region ranging from amino acids 323 to 423; Hif-1α fragment corresponding to C-terminal 786-826 amino acids
# Sequence (Q09472 323-423): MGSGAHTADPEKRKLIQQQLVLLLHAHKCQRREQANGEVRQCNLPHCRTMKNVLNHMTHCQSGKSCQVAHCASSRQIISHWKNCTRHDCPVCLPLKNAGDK
# ASSAY NAME: Primary biochemical assay for inhibition of the Hif-1α/p300 interaction (DELFIA fluorescence assay)
# TEST CONDITIONS: biotinylated Hif-1α 786-826 / GST-p300 323-423, mean of two independent experiments
pIC50: −log10 of the molar value.

| MOLECULE | ASSAYED TARGET | pIC50 |
| --- | --- | --- |
| COC(=O)c1ccc(-c2ccc(/C=C3/SC(=S)N(Cc4cccs4)C3=O)o2)cc1 [Compound 13] | Biot-HIF-1α786-826/GST-p300323-423 (Homo sapiens) | 4.83 |
| COC(=O)c1ccc(-c2ccc(/C=C3/SC(=S)N(Cc4ccc(C)cc4)C3=O)o2)cc1 [Compound 9] | Biot-HIF-1α786-826/GST-p300323-423 (Homo sapiens) | 5.23 |
| NS(=O)(=O)c1ccc(-c2ccc(/C=C3/SC(=S)N(Cc4ccccc4)C3=O)o2)cc1 [Compound 7] | Biot-HIF-1α786-826/GST-p300323-423 (Homo sapiens) | 5.31 |
| COc1ccc(CCN2C(=O)/C(=C\c3ccc(-c4ccc(C#N)cc4)o3)SC2=S)cc1OC [Compound 18] | Biot-HIF-1α786-826/GST-p300323-423 (Homo sapiens) | 4.52 |
| COC(=O)c1ccc(-c2ccc(/C=C3/SC(=S)N(CCc4ccccc4)C3=O)o2)cc1 [Compound 20] | Biot-HIF-1α786-826/GST-p300323-423 (Homo sapiens) | 5.38 |
| COC(=O)c1ccc(-c2ccc(/C=C3/SC(=S)N(CCc4ccc(OC)c(OC)c4)C3=O)o2)cc1 [Compound 21] | Biot-HIF-1α786-826/GST-p300323-423 (Homo sapiens) | 5.13 |
| COC(=O)c1ccccc1-c1ccc(/C=C2/SC(=S)N(Cc3ccccc3)C2=O)o1 [Compound 1] | Biot-HIF-1α786-826/GST-p300323-423 (Homo sapiens) | 5.07 |
| COC(=O)c1ccc(-c2ccc(/C=C3/SC(=S)N(CCCN4CCOCC4)C3=O)o2)cc1 [Compound 16] | Biot-HIF-1α786-826/GST-p300323-423 (Homo sapiens) | 4.96 |
| N#Cc1ccc(-c2ccc(/C=C3/SC(=S)N(CCc4ccccc4)C3=O)o2)cc1 [Compound 19] | Biot-HIF-1α786-826/GST-p300323-423 (Homo sapiens) | 5.85 |
